EC50 reference
- Tested on: Leishmania donovani axenic amastigote parasites
- assay.protocol: Leishmania donovani axenic amastigote proliferation assay
- Assay type: cell-based
- reported.conditions: axenic amastigotes in vitro, read-out: L. donovani amastigotes EC50

Solved cases below.
> print(dat)
                               smiles.input  assay.metric   result
1  O=C(Nc1ccc(F)c(-c2nc3ncc(-c4ccccc4)cc3[nH]2)c1)N1CCCC1          EC50  1.97 µM
2  Cc1cnc2nc(-c3cc(NC(=O)CCN)ccc3F)[nH]c2c1          EC50  > 25 µM
3  COc1ccc(-c2cnc3nc(-c4cc(NC(=O)c5ccco5)ccc4Cl)[nH]c3c2)cc1S(=O)(=O)N1CCCC1          EC50  0.44 µM
4  CNc1ccc(-c2cnc3nc(-c4cc(NC(=O)c5ccc(CN(C)C)o5)ccc4Cl)[nH]c3c2)cc1          EC50  > 25 µM
5  CNC(=O)Nc1ccc(Cl)c(-c2nc3ncc(C)cc3[nH]2)c1          EC50  > 25 µM
6  Cc1cnc2nc(-c3cc(NC(=O)c4cc5ccccn5n4)ccc3F)[nH]c2c1          EC50    17 µM

For record Cc1cnc2nc(-c3cc(NS(=O)(=O)c4c(C)noc4C)ccc3Cl)[nH]c2c1 the listed EC50 is > 24.9 µM

compound CC(C)N(C(=O)Nc1ccc(F)c(-c2nc3ncc(Br)cc3[nH]2)c1)C(C)C , EC50 observed: > 25 µM
